Assay: solvent given as SMILES
Settings: in Cc1ccccc1
property_measured: emission maximum (nm)
Number in nm, nothing else.

Ask: Which emission maximum value is on record for `COc1ccc(N(c2ccc(OC)cc2)c2ccc(-c3ccc4c(c3)C(=O)c3ccccc3C4=O)cc2)cc1` ?
Reply: 679

Ask: Next entry: `CN(C)c1ccc(/C=C/c2cc(/C=C/c3ccc(N(C)C)cc3)nc(/C=C/c3ccccc3)n2)cc1`
Reply: 483

Ask: Try the compound `O=C(c1ccc(-n2c3ccccc3c3cc(-n4c5ccccc5c5ccccc54)ccc32)cc1)c1ccc(-n2c3ccccc3c3cc(-n4c5ccccc5c5ccccc54)ccc32)cn1`
Reply: 462

Ask: Also, `CC1(C)c2ccccc2-c2cc3c(cc21)N(c1ccc(-c2nc(-c4ccc(N5c6ccccc6C(c6ccccc6)(c6ccccc6)c6cc7c(cc65)C(C)(C)c5ccccc5-7)cc4)nc(-c4ccc(N5c6ccccc6C(c6ccccc6)(c6ccccc6)c6cc7c(cc65)C(C)(C)c5ccccc5-7)cc4)n2)cc1)c1ccccc1C3(c1ccccc1)c1ccccc1` please.
Reply: 515

Ask: Then this compound: `N#Cc1cc(-n2c3ccccc3c3cccnc32)c(-n2c3ccccc3c3cccnc32)cc1C#N`
Reply: 417.44

Ask: One more compound: `Cc1ccc(C2=C3C=CC(Cl)=[N+]3[B-](F)(F)n3c(Cl)ccc32)cc1`
Reply: 529

Ask: Param item: `CCn1c2ccccc2c2cc(-c3cc(-c4ccc5c(c4)c4ccccc4n5CC)nc(SC)n3)ccc21`
Reply: 387

Ask: Next: `CC(C)(C)c1ccc2c(c1)c1cc3c4cc(C(C)(C)C)ccc4c4c5c6ccc(C(C)(C)C)cc6c6cc7c8cc(C(C)(C)C)ccc8c8c2c1c(c34)c(c78)c65`
Reply: 685.4

Ask: What do you get for `c1csc(-c2cnc(-c3cccs3)c3nonc23)c1` ?
Reply: 600

Ask: What do you have for `COc1ccc2c(c1)c1cc(OC)ccc1n2-c1cccc(-n2c3ccc(OC)cc3c3cc(OC)ccc32)c1C#N` ?
Reply: 460

Ask: And for `CCn1c2ccccc2c2cc(/C=C/c3cccc(/C=C/c4ccc5c(c4)c4ccccc4n5CC)[n+]3CCCS(=O)(=O)[O-])ccc21` ?
Reply: 598

Ask: Same question for `CN(C)c1ccc(C#Cc2ccccc2)cc1` please.
Reply: 366.01

Ask: Same again, this time with `CCCCN1C(=O)C(=CC=C2N(CCCC)c3ccccc3N2CCCC)C(=O)N(CCCC)C1=S`
Reply: 490

Ask: Follow-up item: `c1cc2ccc3ccc4cc3c2cc1c1ccc2c(c1)c1cc(ccc1[C@]13OCCO[C@]21OCCO3)c1ccc2c(c1)c1cc4ccc1[C@]13OCCO[C@]21OCCO3`
Reply: 388

Ask: Continue with `c1ccc2c(c1)c1ccccc1n2-c1ccc(-c2ccc(-n3c4ccccc4c4ccccc43)nc2-n2c3ccccc3c3ccccc32)nn1`
Reply: 423

====

Consider the following molecules; for each one, report its emission maximum.
Assay: solvent given as SMILES
Conditions: in O=P(c1ccccc1)(c1ccccc1)c1ccc2oc3ccc(P(=O)(c4ccccc4)c4ccccc4)cc3c2c1
Please reply with the bare figure in nm and do not write the unit itself.

Ask: Consider the molecule `CC1(C)c2ccccc2N(c2ccc(-c3ncccn3)cc2)c2ccccc21` and give its measured emission maximum.
Reply: 457

Ask: Query `Cc1ccc2c(c1)C1(c3ccccc3-c3ccccc31)c1cc(C)ccc1N2c1ccc(-c2ncccn2)cc1` next
Reply: 466

Ask: Follow-up entry: `Cc1ccc2c(c1)C(c1ccccc1)(c1ccccc1)c1cc(C)ccc1N2c1ccc2c(c1)N(c1ccccc1)c1ccccc1B2c1c(C(C)C)cc(C(C)C)cc1C(C)C`
Reply: 465

Ask: Query `Cc1ccc2c(c1)C1(c3ccccc3Oc3ccccc31)c1cc(C)ccc1N2c1ccc(-c2nc(-c3ccccc3)cc(-c3ccccc3)n2)cc1` next
Reply: 452

Ask: Another molecule to check: `Cc1ccc2c(c1)C(c1ccccc1)(c1ccccc1)c1cc(C)ccc1N2c1ccc2c(c1)Sc1ccccc1B2c1c(C(C)C)cc(C(C)C)cc1C(C)C`
Reply: 497

====

For each of the compounds below, state its emission maximum.
Assay: solvent given as SMILES
Details: in ClCCl
Form entry: value (nm) — number only.

Ask: Dear colleague, I am looking for the recorded emission maximum of the following compound: `C=CCN(CC=C)c1ccc(-c2cc(-c3ccc(N(CC=C)CC=C)cc3)cc(-c3ccc(N(CC=C)CC=C)cc3)c2)cc1`
Reply: 397.56

Ask: Same again, this time with `CCCCN1c2ccccc2Sc2cc(/C=C/c3nc4nc5ccccc5nc4s3)ccc21`
Reply: 729

Ask: Another compound to check: `O=C1c2cccc3cc4ccccc4c(c23)C(=O)N1Cc1ccccn1`
Reply: 490

Ask: Can you check `Cc1cc(C)c(C2=C3C=c4c(c5ccc(C(C)(C)C)cc5c5cc(C(C)(C)C)ccc45)=[N+]3[B-](F)(F)n3c2cc2c4ccc(C(C)(C)C)cc4c4cc(C(C)(C)C)ccc4c23)c(C)c1` next?
Reply: 715

Ask: Same again, this time with `CCCCCCCCn1nnc(-c2ccc(C#Cc3ccc(C#Cc4ccc(-c5nnn(CCCCCCCC)n5)cc4)c4nc5c6ccccc6c6ccccc6c5nc34)cc2)n1`
Reply: 502

Ask: Here is the next compound: `Cc1cc(O)c(C(=O)/C=C/c2ccccc2Cl)c(=O)o1`
Reply: 469

Ask: Quick one: `COc1cc2cc(OC)c(-c3ccc([N+](=O)[O-])cc3)cc2cc1-c1ccc([N+](=O)[O-])cc1`
Reply: 578

Ask: Queued: `CC(C)(C)OC(=O)/C=C/C1=CC2=C(c3ccccc3)c3cccn3[B-](F)(F)[N+]2=C1`
Reply: 575

Ask: Also check O=C1c2ccccc2C(=O)C1C1C(=O)c2c3ccccc3cc3cc4ccccc4c1c23 (centres undefined)
Reply: 583

====

Assay: solvent given as SMILES
Settings: in CCN(CC)CC
So I've got a bunch of compounds here, and I need their emission maximum values.
Kindly answer with a numeric value in nm, unit omitted.

Ask: Record request: emission maximum value, item `CCCCn1c2c(-c3ccc(N(c4ccccc4)c4ccccc4)cc3)cc(C#N)cc2c2cc(C#N)cc(-c3ccc(N(c4ccccc4)c4ccccc4)cc3)c21`
Reply: 415

Ask: Thanks! And `CCCCn1c2ccc(C#N)cc2c2cc(C#N)cc(-c3ccc(N(c4ccccc4)c4ccccc4)cc3)c21` ?
Reply: 410.48

Ask: What do you get for `O=S(=O)(c1ccc(-c2ccc(-c3nc4c5ccccc5c5ccccc5c4n3-c3ccccc3)cc2)cc1)c1ccc(-c2ccc(-c3nc4c5ccccc5c5ccccc5c4n3-c3ccccc3)cc2)cc1` ?
Reply: 413

Ask: And `CC(C)(C)c1ccc(-c2nc3c4ccccc4c4ccccc4c3n2-c2ccc(C(C)(C)C)cc2)cc1` ?
Reply: 388

Ask: Item: `c1ccc(-c2nc(-c3ccc(-c4ccc(N(c5ccccc5)c5ccccc5)cc4)cn3)oc2-c2ccccc2)cc1`
Reply: 422

====

Assay: solvent given as SMILES
Conditions: in CC#N
Each record is given fulfilled if its reported emission maximum is strictly below 500 nm. Records at or above 500 nm are given not fulfilled.

Ask: In plain terms, does `COc1cccc(-n2c(-c3ccccc3)nc(C)c2C)c1` come in under 500 nm for emission maximum?
Reply: fulfilled

Ask: Same lookup for `COc1ccc(/C=C/C2=CC(/C=C/c3ccc(OC)cc3)=[O+][B-](F)(F)O2)cc1` , please.
Reply: not fulfilled

Ask: Query `O=c1oc2ccccc2cc1-c1nc2ccccc2o1` next
Reply: fulfilled

Ask: Note, next up: `C[C@@]12SC(Cl)=CC1=c1nc(-c3ccccc3)[nH]c1=C1C=C(Cl)S[C@]12C`
Reply: fulfilled

Ask: Continue with `CCC(CC)COC1=CC2=C3c4cc(OCC(CC)CC)c(-c5ccccc5)n4[B-](F)(F)[n+]4nnn(c43)[B-](F)(F)[N+]2=C1c1ccccc1`
Reply: not fulfilled

Ask: And for `O=[N+]([O-])c1ccc(/C=C/c2nc3c4ccccc4c4ccccc4c3o2)cc1` ?
Reply: not fulfilled

Ask: Moving on to `CC(C)(C)c1cc2ccc3cc(C(C)(C)C)cc4c(N(c5ccccc5)c5ccccc5)cc(c1)c2c34`
Reply: fulfilled

Ask: And for `CCNc1cc2c(cc1C)C(c1ccccc1C(=O)O)=C1CCCC(/C=C/C3=[N+](C)c4ccccc4C3(C)C)=C1O2` ?
Reply: not fulfilled

Ask: # repeat for `CCN(CC)c1ccc(/N=N/c2nc3ccc(OC)cc3s2)cc1`
Reply: not fulfilled

Ask: Param item: `COc1cc(/C=C/C(=O)CC(=O)/C=C/c2ccc(O)c(OC)c2)ccc1O`
Reply: not fulfilled

Ask: Now give it for O=P1(c2ccccc2)C2=C(c3ccccc31)[Si](c1ccccc1)(c1ccccc1)c1cc(N(c3ccccc3)c3ccccc3)ccc12 (stereo not given) too.
Reply: not fulfilled

Ask: Please give the result for `CCCCCCc1ccc(-n2c3[n+](c4c5ccccc5c5ccccc5c42)[B-](C)(C)c2cc(N(c4ccccc4)c4ccccc4)ccc2-3)cc1` too.
Reply: fulfilled

Ask: Next: `CC1(C)CC(=O)c2cc(F)c(F)cc2N1`
Reply: fulfilled

Ask: Follow-up item: `COc1ccccc1-c1nc(-c2ccccc2)c2ccccn12`
Reply: fulfilled

Ask: Another compound to check: `CCn1c2ccccc2c2cc(/C=C/c3cc(/C=C/c4ccc5c(c4)c4ccccc4n5CC)[n+](CCCS(=O)(=O)[O-])c(/C=C/c4ccc5c(c4)c4ccccc4n5CC)c3)ccc21`
Reply: not fulfilled

Ask: Further, for `COc1ccc(-c2cc3c(s2)c(C(=O)c2ccccc2)cc(=O)n3Cc2ccccc2)cc1` ?
Reply: not fulfilled

Ask: Another compound: `N#Cc1c[nH]c2ccccc12`
Reply: fulfilled

Ask: Next: `CCN(CC)c1ccc2cc(/C=C/C3=C4CC/C(=C\c5cc6ccc(N(CC)CC)cc6oc5=O)C4=[O+][B-](F)(F)O3)c(=O)oc2c1`
Reply: not fulfilled

Ask: Repeat with `Cn1c(=O)nc2n(C)c3ccccc3nc-2c1=O`
Reply: not fulfilled

Ask: Would you kindly repeat that for `Cc1ccc2c(c1)C(=O)c1ccncc1-2` ?
Reply: not fulfilled

Ask: Now the same for `CCOC(=O)c1ccc(O)c(-c2[nH]c(=O)n3c2-c2ccccc2C3=O)c1`
Reply: fulfilled

Ask: Entry to check: `Fc1ccc(-c2cc3ccc4cc(-c5ccc(F)cc5)cc5ccc(c2)c3c45)cc1`
Reply: fulfilled

Ask: Another compound: `N#Cc1cc2ccccc2oc1=N`
Reply: fulfilled

Ask: Same for `CCOC(=O)CCOc1ccc(C(c2c(C)[nH]c3ccccc23)c2c(C)[nH]c3ccccc23)cc1OC`
Reply: fulfilled

Ask: Another compound to look at: `Cc1nc(-c2ccccc2)c2ccccn12`
Reply: fulfilled

Ask: Please give the result for `Cc1ccc(C(=O)/C=C/c2ccc(N(C)C)cc2)cc1` too.
Reply: not fulfilled

Ask: Could you do the same for `C=Cc1cc2cc3c(cc2oc1=O)OCO3` , please?
Reply: fulfilled

Ask: Next entry: `CN(C)c1ccc(/C=C/c2nc3c4ccccc4c4ccccc4c3[nH]2)cc1`
Reply: fulfilled

Ask: Next compound: `Nc1ccc2c(c1)C(=O)c1ccc(N)cc1C2=O`
Reply: not fulfilled

Ask: Same read-out for `C(=C\c1nc2ccccc2[nH]1)/c1ccc(-c2nc3c4cccnc4c4ncccc4c3[nH]2)cc1` ?
Reply: fulfilled

Ask: How about this compound: `Cn1nc(-c2ccccc2)c2nc3cc(F)ccc3nc21`
Reply: not fulfilled

Ask: Likewise for C=CCOc1ccc(-c2nc3cc(C(NC(=O)OC(C)(C)C)C(=O)OC)ccc3o2)cc1 (stereo not given) ?
Reply: fulfilled

Ask: Now the same for `C(=C\c1ccc(N(c2ccccc2)c2ccccc2)cc1)/c1ccc(-c2cc(-c3ccccn3)nc(-c3ccccn3)c2)cc1`
Reply: not fulfilled
